Source of measurements: PubChem BioAssay AID1259407

system: CCRIS mutagenicity, Ames/micronucleus/aberration tests; assay: CCRIS mutagenicity studies; settings: Test System: AMES SALMONELLA TYPHIMURIUM; Strain/Indicator: TA1535; Metabolic Activation: NONE; Method: PREINCUBATION
Active and inactive are the calls of the source. No rule for the calls is given here.
Thanks in advance; please answer with one of these: active, inactive

CON : inactive

Hello, I am checking results. What call was entered for CCN ? inactive

Recorded test call requested for N#CCc1ccccc1 inactive

Could you check what this test reported for CCCCCCC(O)C/C=C\CCCCCCCC(=O)OCC(COC(=O)CCCCCCC/C=C\CC(O)CCCCCC)OC(=O)CCCCCCC/C=C\CC(O)CCCCCC (stereo unspecified) ? inactive

====

Test system: CCRIS mutagenicity, Ames/micronucleus/aberration tests
Test: CCRIS mutagenicity studies
Settings: Test System: AMES SALMONELLA TYPHIMURIUM; Strain/Indicator: TA98; Metabolic Activation: RAT, LIVER, S-9, AROCLOR 1254; Method: STANDARD PLATE
From the text: The CCRIS database contains chemical records with carcinogenicity, mutagenicity, tumor promotion, and tumor inhibition test results. It was developed by the National Cancer Institute (NCI). Data are derived from studies cited in primary journals, current awareness tools, NCI reports, and other sources. Test results have been reviewed by experts in carcinogenesis and mutagenesis. CCRIS provides historical information from the years 1985 - 2011. It is no longer updated. […]
The source made the active and inactive calls. The rule behind the calls is not given here.
// one of yes (active), no (inactive), no free text

Nc1ccccc1C(F)(F)F : no

# outcome recorded in this test, key = CCC(CCC(C)=O)COC(=O)CCCCC(=O)O (configuration not stated) no

Identify the outcome logged in this assay for the compound shown: O=C(COc1ccc(Cl)cc1Cl)N[C@@H](Cc1c[nH]c2ccccc12)C(=O)O no

# lookup: test call for COc1c(O)c2c(c3cc(C(=O)N4CCc5c4c(O)c(OC)c4[nH]c(C(=O)N6C[C@H]7C[C@@]78C6=CC(=O)c6[nH]cc(C)c68)cc54)[nH]c13)CCN2C(N)=O no

For COc1cc2c(CCNC(C)=O)c[nH]c2cc1O , which call appears in the assay record? no

Kindly provide the recorded test outcome for the following compound: O=C(O)c1cc(O)c2c(c1)C(=O)c1cccc(O)c1C2=O no

====

tested on: CCRIS mutagenicity, Ames/micronucleus/aberration tests; assay: CCRIS mutagenicity studies; settings: Test System: AMES SALMONELLA TYPHIMURIUM; Strain/Indicator: TA98; Metabolic Activation: NONE; Method: PREINCUBATION
The source made the active and inactive calls. The rule behind the calls is not given here.
Output constraint: value belongs to active, inactive

Field: example entries. Status: answers known.
O=[N+]([O-])c1ccc(NCCO)c(OCCO)c1 : active
O=Nc1ccc(O)cc1 : active
COc1ccc(CCC(=O)c2c(O)cc(O[C@@H]3O[C@H](CO)[C@@H](O)[C@H](O)[C@H]3O[C@@H]3O[C@@H](C)[C@H](O)[C@@H](O)[C@H]3O)cc2O)cc1O : inactive

Could you kindly confirm the outcome this assay logged for O=S(=O)(O)c1ccc(O)c2ncccc12 ? inactive

Outcome logged for C=C(C)C(=O)OCCCCCCCCCC in this assay: inactive

Hello, I am checking results. What call was entered for C[C@@H]1[C@H](O)[C@@H](C)/C=C/C=C/C=C/C=C/C=C/C=C/C=C/[C@H](O[C@@H]2O[C@H](C)[C@@H](O)[C@H](N)[C@@H]2O)C[C@@H]2O[C@](O)(C[C@@H](O)C[C@@H](O)[C@H](O)CC[C@@H](O)C[C@@H](O)CC(=O)O[C@H]1C)C[C@H](O)[C@H]2C(=O)O ? inactive

Recorded test outcome, item CCC(C)c1ccccc1O (centres undefined) inactive

# lookup: test call for N[C@H](Cc1ccccc1)C(=O)O inactive

What did this assay record as the result for CC(=O)Nc1ccccc1 ? inactive

Tell me the recorded outcome of this test for CCCCCCCCCCCC(=O)O . inactive

Outcome logged for Cc1c(C)c2c(Cl)c3ccccc3nc2c2ccccc12 in this assay: active

Status in this test for CCN(CC)C(=S)SSC[C@H](NC(=O)CC[C@H](N)C(=O)O)C(=O)NCC(=O)O ? inactive
